Entry source: ChEMBL document CHEMBL3351506

- Tested on: L1210
- method-notes: Antitumor activity against mouse L1210 cells assessed as inhibition of [3H]thymidine incorporation after 72 hrs
- Format: functional, cell-based
Mark T only for EC50 values smaller than 500 µM; exact matches and larger values are F.

{"smiles-text": "CC(=O)N[C@H]1[C@@H](OCc2ccccc2)O[C@H](CO)[C@@H](O)[C@@H]1O[C@H](C)C(=O)N[C@@H](C)C(=O)N[C@H](CCC(=O)NCCCCCC(=O)Nc1ncnc2c1ncn2[C@@H]1O[C@H](CO)[C@@H](O)[C@H]1O)C(N)=O", "class": "F"}
{"smiles-text": "CC[C@@H](NC(=O)[C@@H](C)O[C@H]1[C@H](O)[C@@H](CO)O[C@H](OCc2ccccc2)[C@@H]1NC(C)=O)C(=O)N[C@H](CCC(=O)NCCNc1ncnc2c1ncn2[C@@H]1O[C@H](CO)[C@@H](O)[C@H]1O)C(N)=O", "class": "T"}
{"smiles-text": "CC(=O)N[C@H]1[C@@H](OCc2ccccc2)O[C@H](CO)[C@@H](O)[C@@H]1OCC(=O)N[C@H](C)C(=O)N[C@H](CCC(=O)O)C(N)=O", "class": "T"}
{"smiles-text": "CC(=O)N[C@H]1[C@@H](OCc2ccccc2)O[C@H](CO)[C@@H](O)[C@@H]1O[C@H](C)C(=O)N[C@H](C)C(=O)N[C@H](CCC(=O)NCCNc1ncnc2c1ncn2[C@@H]1O[C@H](CO)[C@@H](O)[C@H]1O)C(N)=O", "class": "F"}
{"smiles-text": "CC(=O)N[C@H]1[C@@H](OCc2ccccc2)O[C@H](CO)[C@@H](O)[C@@H]1O[C@H](C)C(=O)N[C@@H](C(=O)N[C@H](CCC(=O)O)C(N)=O)C(C)C", "class": "T"}
{"smiles-text": "CC(=O)N[C@H]1[C@@H](OCc2ccccc2)O[C@H](CO)[C@@H](O)[C@@H]1OCC(=O)N[C@H](CO)C(=O)N[C@H](CCC(=O)O)C(N)=O", "class": "T"}
{"smiles-text": "Nc1ncnc2c1ncn2[C@@H]1O[C@H](CO)[C@@H](O)[C@H]1O", "class": "F"}

###

- Test system: L1210
- method-notes: Cytotoxicity against mouse L1210 cells assessed as inhibition of cell viability after 72 hrs by MTT assay relative to control
- Type: functional
- Set-up: concentration or dose not given beside the values
- assay-context: values are per cent of control

{"smiles-text": "CC[C@@H](NC(=O)CO[C@H]1[C@H](O)[C@@H](CO)O[C@H](OCc2ccccc2)[C@@H]1NC(C)=O)C(=O)N[C@H](CCC(=O)NCCNc1ncnc2c1ncn2[C@@H]1O[C@H](CO)[C@@H](O)[C@H]1O)C(N)=O", "viability, % of control": "53.6%"}
{"smiles-text": "CC(=O)N[C@H]1[C@@H](OCc2ccccc2)O[C@H](CO)[C@@H](O)[C@@H]1OCC(=O)N[C@H](CO)C(=O)N[C@H](CCC(=O)O)C(N)=O", "viability, % of control": "14.68%"}
{"smiles-text": "CC(=O)N[C@H]1[C@@H](OCc2ccccc2)O[C@H](CO)[C@@H](O)[C@@H]1O[C@H](C)C(=O)N[C@@H](C(=O)N[C@H](CCC(=O)O)C(N)=O)C(C)C", "viability, % of control": "39.72%"}
{"smiles-text": "CC(=O)N[C@H]1[C@@H](OCc2ccccc2)O[C@H](CO)[C@@H](O)[C@@H]1OCC(=O)N1CCC[C@@H]1C(=O)N[C@H](CCC(=O)NCCNc1ncnc2c1ncn2[C@@H]1O[C@H](CO)[C@@H](O)[C@H]1O)C(N)=O", "viability, % of control": "52.99%"}
{"smiles-text": "CC(=O)N[C@H]1[C@@H](OCc2ccccc2)O[C@H](CO)[C@@H](O)[C@@H]1OCC(=O)N[C@@H](C(=O)N[C@H](CCC(=O)NCCNc1ncnc2c1ncn2[C@@H]1O[C@H](CO)[C@@H](O)[C@H]1O)C(N)=O)C(C)C", "viability, % of control": "31.65%"}
{"smiles-text": "CC(=O)N[C@H]1[C@@H](OCc2ccccc2)O[C@H](CO)[C@@H](O)[C@@H]1O[C@H](C)C(=O)N1CCC[C@@H]1C(=O)N[C@H](CCC(=O)NCCNc1ncnc2c1ncn2[C@@H]1O[C@H](CO)[C@@H](O)[C@H]1O)C(N)=O", "viability, % of control": "43.1%"}
{"smiles-text": "CC(=O)N[C@@H]1[C@@H](O[C@H](C)C(=O)N[C@H](C)C(=O)N[C@H](CCC(=O)O)C(N)=O)[C@H](O)[C@@H](CO)O[C@@H]1O", "viability, % of control": "64.93%"}
{"smiles-text": "CC(=O)N[C@H]1[C@@H](OCc2ccccc2)O[C@H](CO)[C@@H](O)[C@@H]1OCC(=O)N[C@@H](C)C(=O)N[C@H](CCC(=O)NCCCCCC(=O)Nc1ncnc2c1ncn2[C@@H]1O[C@H](CO)[C@@H](O)[C@H]1O)C(N)=O", "viability, % of control": "70.64%"}
{"smiles-text": "CC(=O)N[C@H]1[C@@H](OCc2ccccc2)O[C@H](CO)[C@@H](O)[C@@H]1O[C@H](C)C(=O)N[C@@H](C(=O)N[C@H](CCC(=O)NCCNc1ncnc2c1ncn2[C@@H]1O[C@H](CO)[C@@H](O)[C@H]1O)C(N)=O)C(C)C", "viability, % of control": "-0.87%"}
{"smiles-text": "CC(=O)N[C@H]1[C@@H](OCc2ccccc2)O[C@H](CO)[C@@H](O)[C@@H]1O[C@H](C)C(=O)N[C@@H](C)C(=O)N[C@H](CCC(=O)NCCCCCC(=O)Nc1ncnc2c1ncn2[C@@H]1O[C@H](CO)[C@@H](O)[C@H]1O)C(N)=O", "viability, % of control": "65.58%"}
{"smiles-text": "CC(=O)N[C@H]1[C@@H](OCc2ccccc2)O[C@H](CO)[C@@H](O)[C@@H]1O[C@H](C)C(=O)N[C@H](CO)C(=O)N[C@H](CCC(=O)NCCNc1ncnc2c1ncn2[C@@H]1O[C@H](CO)[C@@H](O)[C@H]1O)C(N)=O", "viability, % of control": "28.09%"}
{"smiles-text": "CC(=O)N[C@H]1[C@@H](OCc2ccccc2)O[C@H](CO)[C@@H](O)[C@@H]1O[C@H](C)C(=O)N[C@H](C(=O)N[C@H](CCC(=O)NCCNc1ncnc2c1ncn2[C@@H]1O[C@H](CO)[C@@H](O)[C@H]1O)C(N)=O)C(C)C", "viability, % of control": "59.37%"}
{"smiles-text": "CC(=O)N[C@H]1[C@@H](OCc2ccccc2)O[C@H](CO)[C@@H](O)[C@@H]1OCC(=O)N[C@@H](C(=O)N[C@H](CCC(=O)O)C(N)=O)C(C)C", "viability, % of control": "26.6%"}
{"smiles-text": "Nc1ncnc2c1ncn2[C@@H]1O[C@H](CO)[C@@H](O)[C@H]1O", "viability, % of control": "32.79%"}
{"smiles-text": "CC(=O)N[C@H]1[C@@H](OCc2ccccc2)O[C@H](CO)[C@@H](O)[C@@H]1O[C@H](C)C(=O)N[C@H](C)C(=O)N[C@H](CCC(=O)NCCNc1ncnc2c1ncn2[C@@H]1O[C@H](CO)[C@@H](O)[C@H]1O)C(N)=O", "viability, % of control": "35.91%"}
{"smiles-text": "CC[C@@H](NC(=O)[C@@H](C)O[C@H]1[C@H](O)[C@@H](CO)O[C@H](OCc2ccccc2)[C@@H]1NC(C)=O)C(=O)N[C@H](CCC(=O)NCCNc1ncnc2c1ncn2[C@@H]1O[C@H](CO)[C@@H](O)[C@H]1O)C(N)=O", "viability, % of control": "29.01%"}
{"smiles-text": "CC(=O)N[C@H]1[C@@H](OCc2ccccc2)O[C@H](CO)[C@@H](O)[C@@H]1OCC(=O)N[C@H](CO)C(=O)N[C@H](CCC(=O)NCCNc1ncnc2c1ncn2[C@@H]1O[C@H](CO)[C@@H](O)[C@H]1O)C(N)=O", "viability, % of control": "64.95%"}
{"smiles-text": "CC(=O)N[C@H]1[C@@H](OCc2ccccc2)O[C@H](CO)[C@@H](O)[C@@H]1OCC(=O)N[C@H](C)C(=O)N[C@H](CCC(=O)NCCNc1ncnc2c1ncn2[C@@H]1O[C@H](CO)[C@@H](O)[C@H]1O)C(N)=O", "viability, % of control": "29.84%"}
{"smiles-text": "CC(=O)N[C@H]1[C@@H](OCc2ccccc2)O[C@H](CO)[C@@H](O)[C@@H]1OCC(=O)N[C@H](C)C(=O)N[C@H](CCC(=O)O)C(N)=O", "viability, % of control": "19.97%"}
